- Test system: HuH-7 hepatocellular carcinoma cells
- Method Notes: CellTiter Glo (CTG) Assay
- Recorded Conditions: Homo sapiens, Huh-7, 72 h, read-out: HUH7 proliferation (nM) CTG
Measured Property: IC50 (nM)
Give the number; nM is assumed, so skip it.

Data point: `CC(C)Nc1cc(NC(=O)N2CCCc3cc(CN4CCN(C)CC4=O)c(C=O)nc32)ncc1C#N` ; IC50 = 45

Per the record, `COCCNc1cc(NC(=O)N2CCCc3cc(CN4C(=O)COC[C@@H]4C)c(C=O)nc32)ncc1C#N` has IC50 of 160

The compound `COCCNc1cc(NC(=O)N2CCCc3cc(CN(CCN(C)C)S(C)(=O)=O)c(C=O)nc32)ncc1C#N` showed IC50 equal to 504

The value of IC50 measured for the compound `CC(=O)N(C)Cc1cc2c(nc1C=O)N(C(=O)Nc1cc(NCCOC(F)(F)F)c(C#N)cn1)CCC2` turned out to be 59

Values compiled from patent US9266883B2.
